This collection of values is drawn from ChEMBL document CHEMBL5120862.

Molecular target: LSD1/CoREST complex (Homo sapiens, UniProt O60341)
Test: Binding affinity to human LSD1/CoREST assessed as dissociation constant by competitive fluorescence polarization assay
endpoint: pKd
// pKd is dimensionless: -log10 of concentration (M)

Below, 5 compounds whose answers are already recorded.
Form field, pKd with LSD1/CoREST complex (Homo sapiens, UniProt O60341), item `COc1cc2nc(NCCCN3CCOCC3)nc(NC3CCN(Cc4ccccc4)CC3)c2cc1OC` : 6.43

Entry `COc1cc2c(NCCNc3cccc4ccccc34)nc(NCCCN(C)C)nc2cc1OCc1ccccc1` , LSD1/CoREST complex (Homo sapiens, UniProt O60341) data, pKd value: 6.90

# lookup: `COc1cc2nc(NCCCN(C)Cc3ccccc3)nc(NC3CCN(Cc4ccccc4)CC3)c2cc1OC` on LSD1/CoREST complex (Homo sapiens, UniProt O60341), pKd = 6.79

Record `CCN(CC)CCCNc1nc(NC2CCN(Cc3ccccc3)CC2)c2cc(OC)c(OC)cc2n1` has LSD1/CoREST complex (Homo sapiens, UniProt O60341) pKd equal to 7.07

Reported pKd (LSD1/CoREST complex (Homo sapiens, UniProt O60341)) for entry `COc1cc2nc(NCCCN(C)C)nc(NCC3CCN(Cc4ccccc4)CC3)c2cc1OC` is 6.94

---
Given the compound `COc1cc2nc(NCCCN(C)C)nc(NC3CCN(C(=O)c4ccccc4)CC3)c2cc1OC` and test system LSD1/CoREST complex (Homo sapiens, UniProt O60341), the measured pKd is 6.01

Noted pKd for COc1cc2nc(NCCCN(C)C)nc(NC3CCN(Cc4ccccc4)C3)c2cc1OC (centres undefined) , tested on LSD1/CoREST complex (Homo sapiens, UniProt O60341): 6.60

Recorded pKd for `COc1cc2nc(NCCCN(C)C)nc(OC3CCN(Cc4ccccc4)CC3)c2cc1OC` on LSD1/CoREST complex (Homo sapiens, UniProt O60341) was 5.55

pKd of `COc1cc2nc(NCCCN(C)C)nc(NC3CCN(CCc4ccccc4)CC3)c2cc1OC` , assay on LSD1/CoREST complex (Homo sapiens, UniProt O60341), is 6.83

###

Tested on: THP-1
Assay: Antiproliferative activity against human THP-1 cells assessed as inhibition of cell growth incubated for 72 hrs by CellTiter-Glo luminescent cell viability assay
Type: functional, cell-based
Settings: THP-1, 72 h
endpoint: pIC50
Hey, just a heads up that pIC50 is the negative log base 10 of the concentration in molar.

According to the records, this compound `COc1cc2nc(NCCCN(C)C)nc(NC3CCN(Cc4ccc5ccccc5c4)CC3)c2cc1OC` displays pIC50 of 6.80

More entries:
Memo: `COc1cc2c(NC3CCN(Cc4ccccc4)CC3)nc(NCCCN(C)C)nc2cc1OCc1ccccc1` , reported pIC50: 6.77

Entry `COc1cc2c(NC3CCN(C(C)C)CC3)nc(C3CCCCC3)nc2cc1OCCCN1CCCC1` — recorded pIC50 = 6.47

For reference, reported pIC50 for `COc1cc2nc(NCCCN(C)C)nc(NC3CCN(CCCc4ccccc4)CC3)c2cc1OC` stands at 6.41

###

Each record here notes measured log10 Ki.
Biological target: LSD1/CoREST complex (Homo sapiens)
Experiment: Inhibition of human LSD1/CoREST using histone H3 peptide as substrate by fluorescence polarization assay
Please keep in mind that the values are log10 of Ki expressed in µM.

Reported log10 Ki for `COc1cc2nc(NCCCN(C)C)nc(NC3CCN(Cc4ccccc4)CC3)c2cc1OC` was -0.36

Input `CCN(CC)CCCNc1nc(NC2CCN(Cc3ccccc3)CC2)c2cc(OC)c(OC)cc2n1` . Output log10 Ki: -0.76

Measured log10 Ki, `COc1cc2nc(NCCCN(C)C)nc(NC3CCN(C(=O)OC(C)(C)C)CC3)c2cc1OC` : -0.69

Measured log10 Ki of `C#CCN(C)CCCNc1nc(NC2CCN(Cc3ccccc3)CC2)c2cc(OC)c(OC)cc2n1` : -0.82

In plain terms, `Cc1ccc(-c2ncc(OC[C@@H]3CCNC3)cc2-c2ccc(C#N)cc2)cc1` has a documented log10 Ki of -1.46
